Some binders, each annotated with its measured percentage of input antibody bound.
TARGET OR SYSTEM: T1, Cynomolgus monkey glycophorin A on Cynomolgus monkey red blood cells or red blood cell membranes (Cynomolgus monkey)
T1 construct: whole, on cells; also called Cyno RBC; Cynomolgus monkey RBC membranes
EXPERIMENT NOTES: Fab on intact cyno RBC, unbound Fab by ELISA; 120 min after 200-fold dilution
Reply with just the number (in %).

Below, each entry is followed by its recorded percentage of input antibody bound result.
BINDER | UNIT DESCRIPTOR | percentage of input antibody bound
TPP-7797, affinity matured 6C12 Fab (Fab, V domains shown, Tested as Fab) VH: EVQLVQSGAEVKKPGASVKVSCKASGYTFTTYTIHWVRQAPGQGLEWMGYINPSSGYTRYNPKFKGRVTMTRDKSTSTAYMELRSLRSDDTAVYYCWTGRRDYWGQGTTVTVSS VL: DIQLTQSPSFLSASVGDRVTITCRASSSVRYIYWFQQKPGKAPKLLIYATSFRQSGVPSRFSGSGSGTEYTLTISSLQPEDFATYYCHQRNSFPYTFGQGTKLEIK | % | 50
TPP-7778, affinity matured 6C12 Fab (Fab, V domains shown, Tested as Fab) VH: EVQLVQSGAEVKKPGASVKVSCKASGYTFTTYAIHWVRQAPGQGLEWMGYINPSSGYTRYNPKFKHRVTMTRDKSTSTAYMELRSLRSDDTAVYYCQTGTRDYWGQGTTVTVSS VL: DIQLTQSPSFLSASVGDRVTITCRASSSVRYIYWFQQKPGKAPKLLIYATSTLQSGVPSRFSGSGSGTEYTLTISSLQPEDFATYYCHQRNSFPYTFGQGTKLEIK | % | 27

Moving on to another binder below.
Enquiry: Could you tell me which percentage of input antibody bound is on file for TPP-7783, affinity matured 6C12 Fab (Fab, V domains shown, Tested as Fab) VH: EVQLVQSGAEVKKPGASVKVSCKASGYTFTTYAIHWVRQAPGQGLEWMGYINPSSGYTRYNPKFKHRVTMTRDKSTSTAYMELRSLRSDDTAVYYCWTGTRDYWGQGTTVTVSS VL: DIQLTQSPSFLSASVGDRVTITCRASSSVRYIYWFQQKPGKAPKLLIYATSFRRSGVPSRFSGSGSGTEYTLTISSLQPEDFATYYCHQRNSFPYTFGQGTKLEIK ?
Return: 56
